test system: Escherichia coli; test: Antibacterial activity against wild type Escherichia coli incubated for 24 hrs; type: functional
PARAMETER MEASURED: MIC

Example entries begin here.
INSERT INTO results (smiles_string, measured_on, result) VALUES
  ('CCCC/C=C/C=C/[C@@]1(C)OC(c2ccsc2C)=C(C(=O)OC)C1=O', 'Escherichia coli', '> 100 µM'),
  ('CC/C=C/C=C/[C@@]1(C)OC(c2ccc(C)s2)=C(C(=O)OC)C1=O', 'Escherichia coli', '> 100 µM');

Report MIC for every entry below.
1. CC/C=C/C=C/[C@@]1(C)OC(c2ccsc2C)=C(C(=O)OC)C1=O
2. CC/C=C/C=C/[C@@]1(C)OC(c2sccc2C)=C(C(=O)OC)C1=O

Key:
1: 1.7 mg/L; 2: > 100 µM
